# Protocol Description: Selectivity index, ratio of GI50 for human PANC1 cells to MIC for active stage of Mycobacterium tuberculosis H37Ra ATCC 25177 infected in human THP1 cells
# Assay type: toxicity, cell-based
# Condition Label: PANC-1 cells, read-out: Selectivity Index
Some compounds, each annotated with its measured selectivity ratio.
Lab note: jot down the number only; don't add units.

Sample records with selectivity ratio:
Input: Find the measured selectivity ratio of CCCCCCCc1cc2c(=O)n(CCCSc3nc(-c4cc(OC)c(OC)c(OC)c4)c(C#N)c(=O)[nH]3)cnc2s1 and report it.
Output: 3

Input: Identify measured selectivity ratio corresponding to N#Cc1c(-c2ccc(O)cc2)[nH]c(=S)[nH]c1=O
Output: 3

Input: Using the record for COc1cc(-c2nc(SCCCn3cnc4sc5c(c4c3=O)CCCC5)n(Cc3ccccc3)c(=O)c2C#N)cc(OC)c1OC , state its measured selectivity ratio.
Output: 2

Input: Answer with the recorded selectivity ratio of CCCCCCc1cc2c(=O)n(CCCSc3nc(-c4cc(OC)c(OC)c(OC)c4)c(C#N)c(=O)[nH]3)cnc2s1 only.
Output: 1

Proceed to the following item.
Input: Answer with reported selectivity ratio of COc1cc(-c2nc(SCCCn3cnc4sc5c(c4c3=O)CCCC5)n(C)c(=O)c2C#N)cc(OC)c1OC
Output: 1

The origin of these recorded values is ChEMBL document CHEMBL3992538.
